- TARGET SYSTEM: Platelet-derived growth factor receptor beta (Homo sapiens, UniProt P09619)
- Sequence (P09619 whole entry): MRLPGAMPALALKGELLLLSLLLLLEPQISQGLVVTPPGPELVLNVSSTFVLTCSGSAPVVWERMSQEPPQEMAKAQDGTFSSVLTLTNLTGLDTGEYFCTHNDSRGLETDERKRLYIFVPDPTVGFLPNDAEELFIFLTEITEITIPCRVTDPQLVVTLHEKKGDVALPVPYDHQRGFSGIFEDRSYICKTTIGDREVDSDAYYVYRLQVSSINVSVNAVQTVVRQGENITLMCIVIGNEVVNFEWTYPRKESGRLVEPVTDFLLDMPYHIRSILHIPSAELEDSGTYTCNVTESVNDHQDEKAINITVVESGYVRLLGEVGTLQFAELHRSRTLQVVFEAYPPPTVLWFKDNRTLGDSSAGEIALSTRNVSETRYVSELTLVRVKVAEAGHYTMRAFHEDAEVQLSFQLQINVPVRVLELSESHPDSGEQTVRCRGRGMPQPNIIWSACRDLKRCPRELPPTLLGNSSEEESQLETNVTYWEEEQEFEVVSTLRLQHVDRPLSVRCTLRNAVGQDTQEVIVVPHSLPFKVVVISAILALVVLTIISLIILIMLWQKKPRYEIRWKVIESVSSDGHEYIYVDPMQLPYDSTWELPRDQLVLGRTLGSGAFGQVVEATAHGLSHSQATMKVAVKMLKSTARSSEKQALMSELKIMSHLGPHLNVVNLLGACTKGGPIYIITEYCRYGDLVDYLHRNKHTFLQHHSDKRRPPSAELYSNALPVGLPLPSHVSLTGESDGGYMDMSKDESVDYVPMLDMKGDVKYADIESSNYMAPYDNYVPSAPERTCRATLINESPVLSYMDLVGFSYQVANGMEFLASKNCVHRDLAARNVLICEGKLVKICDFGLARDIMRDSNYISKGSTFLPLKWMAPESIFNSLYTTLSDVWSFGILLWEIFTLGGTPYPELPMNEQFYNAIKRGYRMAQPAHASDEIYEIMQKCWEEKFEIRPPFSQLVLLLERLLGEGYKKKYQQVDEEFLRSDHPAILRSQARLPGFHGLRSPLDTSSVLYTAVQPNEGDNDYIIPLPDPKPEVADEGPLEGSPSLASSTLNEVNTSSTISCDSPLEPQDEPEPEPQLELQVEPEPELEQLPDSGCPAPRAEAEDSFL
- ASSAY COMMENT: Inhibitory activity against PDGFRbeta kinase at 20 uM
Returns one of true (1) or false (0); true (1) when inhibition is >= 50%.

Use the examples below as a reference point.
compound="N#CC(C#N)=C(N)/C(C#N)=C/c1cc(O)c(O)c(O)c1 [TYRPHOSTIN 51]" target_system="Platelet-derived growth factor receptor beta (Homo sapiens, UniProt P09619)" cat="true (1)"
compound=COC(=O)c1c(OCCN2CCOCC2)c2ccccc2c2oc3c(c12)C(=O)c1ccccc1C3=O target_system="Platelet-derived growth factor receptor beta (Homo sapiens, UniProt P09619)" cat="false (0)"
compound=COC(=O)c1c(OCCN2CCN(Cc3ccc(C(F)(F)F)cc3)CC2)c2ccccc2c2oc3c(c12)C(=O)c1ccccc1C3=O target_system="Platelet-derived growth factor receptor beta (Homo sapiens, UniProt P09619)" cat="true (1)"
compound=CCN(CC)CCOc1c(C(=O)OC)c2c3c(oc2c2ccccc12)C(=O)c1ccccc1C3=O target_system="Platelet-derived growth factor receptor beta (Homo sapiens, UniProt P09619)" cat="true (1)"

Req: Does inhibition meet or surpass 50% for COC(=O)c1c(OCCN2CCCC2)c2ccccc2c2oc3c(c12)C(=O)c1ccccc1C3=O ?
Resp: true (1)

Req: Now consider COC(=O)c1c(OCc2ccc(C(=O)OC(C)(C)C)cc2)c2ccccc2c2oc3c(c12)C(=O)c1ccccc1C3=O and answer again.
Resp: true (1)

Req: Now consider COC(=O)c1c(OCc2ccc(OC)cc2)c2ccccc2c2oc3c(c12)C(=O)c1ccccc1C3=O and answer again.
Resp: true (1)

Req: Now consider COC(=O)c1c(OCc2ccncc2)c2ccccc2c2oc3c(c12)C(=O)c1ccccc1C3=O and answer again.
Resp: false (0)

Req: Now consider COC(=O)c1c(OC(C)=O)c2ccccc2c2oc3c(c12)C(=O)c1ccccc1C3=O and answer again.
Resp: false (0)

Req: Now consider COC(=O)c1c(OCCN2CCCCC2)c2ccccc2c2oc3c(c12)C(=O)c1ccccc1C3=O and answer again.
Resp: true (1)

Req: Now consider COC(=O)c1c(OCCCN2CCN(c3ccccc3Cl)CC2)c2ccccc2c2oc3c(c12)C(=O)c1ccccc1C3=O and answer again.
Resp: true (1)

Req: Now consider COC(=O)c1c(O)c2ccccc2c2oc3c(c12)C(=O)c1ccccc1C3=O and answer again.
Resp: false (0)

Req: Now consider COC(=O)c1c(OCCCN(C)C)c2ccccc2c2oc3c(c12)C(=O)c1ccccc1C3=O and answer again.
Resp: true (1)

Req: Now consider CCCOc1c(C(=O)OC)c2c3c(oc2c2ccccc12)C(=O)c1ccccc1C3=O and answer again.
Resp: false (0)

Req: Now consider COC(=O)c1c(OCCN(C)C)c2ccccc2c2oc3c(c12)C(=O)c1ccccc1C3=O and answer again.
Resp: true (1)

Req: Now consider COC(=O)c1c(OC)c2ccccc2c2oc3c(c12)C(=O)c1ccccc1C3=O and answer again.
Resp: false (0)

====

- TARGET SYSTEM: Vascular endothelial growth factor receptor 2 (Homo sapiens)
- ASSAY COMMENT: Inhibitory activity against VEGFR2 kinase
The entries below are paired with their reported IC50.
# value in µM; strip the unit string

Example entries and their recorded answers appear below.
compound=COC(=O)c1c(OCCCN(C)C)c2ccccc2c2oc3c(c12)C(=O)c1ccccc1C3=O value_unit=µM observed_measurement=15.5
compound="N#CC(C#N)=C(N)/C(C#N)=C/c1cc(O)c(O)c(O)c1 [TYRPHOSTIN 51]" value_unit=µM observed_measurement=4.3
compound=CCN(CC)CCOc1c(C(=O)OC)c2c3c(oc2c2ccccc12)C(=O)c1ccccc1C3=O value_unit=µM observed_measurement=12.6

Req: State the recorded IC50 for this entry: COC(=O)c1c(OCCN2CCCC2)c2ccccc2c2oc3c(c12)C(=O)c1ccccc1C3=O
Resp: 5.5

====

The compounds below have reported pIC50 for Epidermal growth factor receptor (Homo sapiens, UniProt P00533).
// field semantics: pIC50 = negative decimal log of concentration (mol/L)

compound_structure=CCN(CC)CCOc1c(C(=O)OC)c2c3c(oc2c2ccccc12)C(=O)c1ccccc1C3=O parameter=pIC50 observed_measurement=5.29
compound_structure=COC(=O)c1c(OCCN2CCCCC2)c2ccccc2c2oc3c(c12)C(=O)c1ccccc1C3=O parameter=pIC50 observed_measurement=5.55

// switching to the query compound
Req: State the recorded pIC50 for this entry: COC(=O)c1c(OCCCN(C)C)c2ccccc2c2oc3c(c12)C(=O)c1ccccc1C3=O
Resp: 4.87

====

The entries below are paired with their reported inhibition.
- TARGET SYSTEM: Vascular endothelial growth factor receptor 2 (Homo sapiens)
- ASSAY COMMENT: Inhibitory activity against VEGFR2 kinase at 20 uM

Example entries and their recorded answers appear below.
compound_structure=N#CC(C#N)=C(N)/C(C#N)=C/c1cc(O)c(O)c(O)c1 parameter=inhibition observed_measurement=88%
compound_structure=COC(=O)c1c(OCCN(C)C)c2ccccc2c2oc3c(c12)C(=O)c1ccccc1C3=O parameter=inhibition observed_measurement=57.1%

Req: State the recorded inhibition for this entry: COC(=O)c1c(OCCN2CCOCC2)c2ccccc2c2oc3c(c12)C(=O)c1ccccc1C3=O
Resp: 40.7%

====

- TARGET SYSTEM: Vascular endothelial growth factor receptor 2 (Homo sapiens, UniProt P35968)
- Sequence (P35968 whole entry): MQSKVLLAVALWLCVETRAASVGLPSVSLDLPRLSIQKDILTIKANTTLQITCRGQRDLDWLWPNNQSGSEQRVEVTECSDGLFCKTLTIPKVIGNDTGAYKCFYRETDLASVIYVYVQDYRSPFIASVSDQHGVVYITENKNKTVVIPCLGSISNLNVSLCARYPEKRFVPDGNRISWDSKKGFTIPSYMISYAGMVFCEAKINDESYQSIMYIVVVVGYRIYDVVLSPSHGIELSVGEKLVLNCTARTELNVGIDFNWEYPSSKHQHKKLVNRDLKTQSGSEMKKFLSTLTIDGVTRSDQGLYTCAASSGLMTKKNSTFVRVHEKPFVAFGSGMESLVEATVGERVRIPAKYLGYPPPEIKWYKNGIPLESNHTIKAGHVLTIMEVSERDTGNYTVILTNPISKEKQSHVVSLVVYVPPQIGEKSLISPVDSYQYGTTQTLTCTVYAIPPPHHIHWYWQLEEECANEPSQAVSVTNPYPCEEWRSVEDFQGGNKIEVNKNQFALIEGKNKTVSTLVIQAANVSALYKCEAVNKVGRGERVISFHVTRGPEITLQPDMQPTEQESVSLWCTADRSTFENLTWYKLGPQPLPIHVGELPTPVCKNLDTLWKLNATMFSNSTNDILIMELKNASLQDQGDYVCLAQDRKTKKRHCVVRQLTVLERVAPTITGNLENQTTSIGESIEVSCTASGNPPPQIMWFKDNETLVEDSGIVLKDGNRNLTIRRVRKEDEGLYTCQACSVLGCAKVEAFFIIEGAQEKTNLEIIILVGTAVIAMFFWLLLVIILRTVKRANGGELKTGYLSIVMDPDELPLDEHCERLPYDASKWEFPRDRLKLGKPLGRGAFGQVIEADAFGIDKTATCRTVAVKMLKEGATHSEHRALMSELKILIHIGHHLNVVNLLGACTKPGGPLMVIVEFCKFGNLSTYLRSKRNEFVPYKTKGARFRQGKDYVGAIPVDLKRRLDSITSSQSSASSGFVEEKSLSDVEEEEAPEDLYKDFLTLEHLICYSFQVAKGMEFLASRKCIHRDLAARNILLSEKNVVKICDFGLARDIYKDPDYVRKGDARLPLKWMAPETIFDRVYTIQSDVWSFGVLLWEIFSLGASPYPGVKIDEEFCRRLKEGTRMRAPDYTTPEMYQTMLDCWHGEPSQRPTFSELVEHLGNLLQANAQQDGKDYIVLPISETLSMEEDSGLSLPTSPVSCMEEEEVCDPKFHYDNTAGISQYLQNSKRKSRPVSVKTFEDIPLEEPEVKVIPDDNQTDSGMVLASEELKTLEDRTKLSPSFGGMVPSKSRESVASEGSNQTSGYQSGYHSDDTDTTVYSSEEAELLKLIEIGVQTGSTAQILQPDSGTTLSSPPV
- ASSAY COMMENT: Inhibitory activity against VEGFR2 kinase at 20 uM
The entries below are paired with their reported inhibition.
# value in %; strip the unit string

Example entries and their recorded answers appear below.
compound_structure=COC(=O)c1c(OC)c2ccccc2c2oc3c(c12)C(=O)c1ccccc1C3=O observed_measurement=-0.8
compound_structure=CCCOc1c(C(=O)OC)c2c3c(oc2c2ccccc12)C(=O)c1ccccc1C3=O observed_measurement=-2.1
compound_structure=COC(=O)c1c(OCCN2CCCC2)c2ccccc2c2oc3c(c12)C(=O)c1ccccc1C3=O observed_measurement=86.5

Req: Record lookup: for Vascular endothelial growth factor receptor 2 (Homo sapiens, UniProt P35968), what inhibition belongs to CCN(CC)CCOc1c(C(=O)OC)c2c3c(oc2c2ccccc12)C(=O)c1ccccc1C3=O ?
Resp: 60.4

Req: Now consider COC(=O)c1c(OCCCN2CCN(c3ccccc3Cl)CC2)c2ccccc2c2oc3c(c12)C(=O)c1ccccc1C3=O and answer again.
Resp: 62.1

====

- TARGET SYSTEM: Fibroblast growth factor receptor 1 (Homo sapiens)
- Sequence (P11362 22-822 limits assumed): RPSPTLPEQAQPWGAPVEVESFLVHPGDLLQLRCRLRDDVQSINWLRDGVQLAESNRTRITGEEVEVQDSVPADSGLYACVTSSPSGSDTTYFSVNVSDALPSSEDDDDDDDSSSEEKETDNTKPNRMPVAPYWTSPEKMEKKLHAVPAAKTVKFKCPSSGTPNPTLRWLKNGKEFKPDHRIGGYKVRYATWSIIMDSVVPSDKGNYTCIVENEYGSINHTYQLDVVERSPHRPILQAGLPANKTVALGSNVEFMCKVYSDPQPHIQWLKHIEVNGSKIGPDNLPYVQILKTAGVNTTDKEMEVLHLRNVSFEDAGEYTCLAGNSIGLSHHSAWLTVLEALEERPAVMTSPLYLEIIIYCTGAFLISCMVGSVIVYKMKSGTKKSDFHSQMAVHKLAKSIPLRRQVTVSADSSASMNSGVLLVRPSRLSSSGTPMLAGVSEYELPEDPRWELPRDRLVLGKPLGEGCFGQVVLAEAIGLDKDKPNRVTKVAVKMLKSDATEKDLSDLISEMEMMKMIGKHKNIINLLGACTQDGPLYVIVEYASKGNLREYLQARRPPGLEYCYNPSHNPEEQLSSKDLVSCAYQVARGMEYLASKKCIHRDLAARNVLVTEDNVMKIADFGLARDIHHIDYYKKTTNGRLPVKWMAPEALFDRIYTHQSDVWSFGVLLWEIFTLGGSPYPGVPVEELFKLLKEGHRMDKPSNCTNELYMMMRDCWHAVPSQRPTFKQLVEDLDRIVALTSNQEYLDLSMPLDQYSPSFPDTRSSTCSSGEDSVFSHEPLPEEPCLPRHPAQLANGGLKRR
- ASSAY COMMENT: Inhibitory activity against FGFR1 kinase at 20 uM
The entries below are paired with their reported inhibition.
# value in %; strip the unit string

compound_structure=COC(=O)c1c(OCCCN(C)C)c2ccccc2c2oc3c(c12)C(=O)c1ccccc1C3=O observed_measurement=51.2
compound_structure=COC(=O)c1c(OCCN(C)C)c2ccccc2c2oc3c(c12)C(=O)c1ccccc1C3=O observed_measurement=51
compound_structure=CCN(CC)CCOc1c(C(=O)OC)c2c3c(oc2c2ccccc12)C(=O)c1ccccc1C3=O observed_measurement=61.1

Req: State the recorded inhibition for this entry: CCCOc1c(C(=O)OC)c2c3c(oc2c2ccccc12)C(=O)c1ccccc1C3=O
Resp: 2.4

Req: Now consider COC(=O)c1c(OC)c2ccccc2c2oc3c(c12)C(=O)c1ccccc1C3=O and answer again.
Resp: 10.5

Req: Now consider COC(=O)c1c(OC(C)=O)c2ccccc2c2oc3c(c12)C(=O)c1ccccc1C3=O and answer again.
Resp: -8.1

Req: Now consider COC(=O)c1c(O)c2ccccc2c2oc3c(c12)C(=O)c1ccccc1C3=O and answer again.
Resp: 12.6

Req: Now consider COC(=O)c1c(OCCN2CCCC2)c2ccccc2c2oc3c(c12)C(=O)c1ccccc1C3=O and answer again.
Resp: 65.2

Req: Now consider COC(=O)c1c(OCc2ccc(OC)cc2)c2ccccc2c2oc3c(c12)C(=O)c1ccccc1C3=O and answer again.
Resp: 46

Req: Now consider COC(=O)c1c(OCc2ccc(C(F)(F)F)cc2)c2ccccc2c2oc3c(c12)C(=O)c1ccccc1C3=O and answer again.
Resp: 44.5

====

- TARGET SYSTEM: Vascular endothelial growth factor receptor 2 (Homo sapiens, UniProt P35968)
- ASSAY COMMENT: Inhibitory activity against VEGFR2 kinase at 20 uM
PARAMETER: inhibition (%)
# value in %; strip the unit string

Example entries and their recorded answers appear below.
compound_structure=COC(=O)c1c(OCCCN(C)C)c2ccccc2c2oc3c(c12)C(=O)c1ccccc1C3=O parameter=inhibition value_unit=% observed_measurement=57.5
compound_structure=COC(=O)c1c(OCc2ccc(OC)cc2)c2ccccc2c2oc3c(c12)C(=O)c1ccccc1C3=O parameter=inhibition value_unit=% observed_measurement=48.3
compound_structure=COC(=O)c1c(OCCN2CCN(Cc3ccc(C(F)(F)F)cc3)CC2)c2ccccc2c2oc3c(c12)C(=O)c1ccccc1C3=O parameter=inhibition value_unit=% observed_measurement=43.3

// switching to the query compound
Req: State the recorded inhibition for this entry: COC(=O)c1c(OCc2ccncc2)c2ccccc2c2oc3c(c12)C(=O)c1ccccc1C3=O
Resp: 3.1
